I'd be grateful if you could share measured pIC50 for these entries.
Biological target: Dual specificity mitogen-activated protein kinase kinase 1 (Homo sapiens)
Sequence (Q02750 whole entry): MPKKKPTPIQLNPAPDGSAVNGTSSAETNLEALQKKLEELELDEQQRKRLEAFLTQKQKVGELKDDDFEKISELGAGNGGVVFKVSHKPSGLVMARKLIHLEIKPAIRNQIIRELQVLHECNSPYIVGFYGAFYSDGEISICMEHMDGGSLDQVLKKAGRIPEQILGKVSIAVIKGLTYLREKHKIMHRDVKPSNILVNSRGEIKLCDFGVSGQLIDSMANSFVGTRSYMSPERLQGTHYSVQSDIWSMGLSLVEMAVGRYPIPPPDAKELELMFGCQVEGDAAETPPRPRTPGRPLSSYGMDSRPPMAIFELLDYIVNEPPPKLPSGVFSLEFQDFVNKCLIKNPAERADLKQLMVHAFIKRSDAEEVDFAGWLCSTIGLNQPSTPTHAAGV
Assay: Inhibition of MEK1 (unknown origin) assessed as phosphorylation of Erk2 preincubated for 30 mins followed by FAM-Erktide addition measured after 60 mins by IMAP fluorescence polarization assay
Numbers only, as −log10 of the molar value.

Below are worked cases with known answers.
{"columns": ["molecule", "study target", "pIC50"],
 "data": [
  ["Cc1c(Cc2cccc(NS(N)(=O)=O)c2F)c(=O)oc2cc(OC(=O)N(C)C)ccc12", "Dual specificity mitogen-activated protein kinase kinase 1 (Homo sapiens)", 7.28],
  ["CNS(=O)(=O)Nc1cccc(Cc2c(C)c3ccc(OC(=O)N(C)C)cc3oc2=O)c1F", "Dual specificity mitogen-activated protein kinase kinase 1 (Homo sapiens)", 7.42],
  ["CNS(=O)(=O)Nc1cccc(Cc2c(C)c3ccc(Oc4nccs4)cc3oc2=O)c1F", "Dual specificity mitogen-activated protein kinase kinase 1 (Homo sapiens)", 7.59],
  ["CNS(=O)(=O)Nc1cccc(Cc2c(C)c3ccc(Oc4ncccn4)cc3oc2=O)c1", "Dual specificity mitogen-activated protein kinase kinase 1 (Homo sapiens)", 6.09],
  ["CNS(=O)(=O)Nc1cccc(Cc2c(C)c3ccc(Oc4ncccn4)cc3oc2=O)c1F", "Dual specificity mitogen-activated protein kinase kinase 1 (Homo sapiens)", 7.01]
]}

Let us examine a further case.
Write down pIC50 measured for item CNS(=O)(=O)Nc1ccc(F)c(Cc2c(C)c3ccc(OC(=O)N(C)C)cc3oc2=O)c1
5.54

Where do these numbers come from? They come from ChEMBL document CHEMBL3091288.
